target or system: T1, 4H968-bA
T1 chain: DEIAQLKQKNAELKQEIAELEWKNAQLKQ
method notes: two-hybrid library CCNG1;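 further: natural log of median RNA to DNA barcode read ratio; higher means stronger binding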
Label label 1 when interaction score is at or above 0.6; anything below gets label 0.

DKNAQLKQKIAELKQENAELEWKIAQLKQ [4H3926-bA] | label 1
DEIAQLKQENAELEQKIAELKWENAQLEQ [4H683-bA] | label 1
DKIAQLKQENAELEQEIAELKWKIAQLKQ [4H2702-bA] | label 1
DKNAQLEQEIAELEQKIAELEWKNAQLKQ [4H3112-bA] | label 0

**Query** # check: interaction score of DEIQELEKKNEELKREIWELKKEIQELER [4H457-bH] is greater than or equal to 0.6
**Result** label 0

**Query** In plain terms: is recorded interaction score at least 0.6 for DKIAQLKQEIAELKQEIAELEWENAQLEQ [4H2627-bA] ?
**Result** label 0
